A collection of compounds and their measured IC50
Target: platelet TP receptor (Homo sapiens, UniProt P21731)
Construct: endogenous in cells
Sequence (P21731 whole entry): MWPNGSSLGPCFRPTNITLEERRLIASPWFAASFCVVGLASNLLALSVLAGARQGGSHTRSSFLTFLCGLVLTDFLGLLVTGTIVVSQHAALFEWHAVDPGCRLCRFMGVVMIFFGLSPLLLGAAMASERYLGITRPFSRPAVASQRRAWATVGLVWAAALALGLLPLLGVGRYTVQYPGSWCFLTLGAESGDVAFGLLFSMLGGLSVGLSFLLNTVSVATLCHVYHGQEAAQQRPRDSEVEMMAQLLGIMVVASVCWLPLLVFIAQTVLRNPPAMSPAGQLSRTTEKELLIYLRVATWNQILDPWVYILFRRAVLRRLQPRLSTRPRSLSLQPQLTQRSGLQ
Experiment: binding of 125I-BOP to platelets
Conditions: 10×10^6 cells/0.5 ml; read-out: IC50 for competition with 125I-BOP binding to platelets
Give a bare numeral; the unit nM is implied.

CCCCCC(O)C=CC1C2CC(CO2)C1CC=CCCCC(=O)O (stereo not drawn) [U46619, reference compound] | 4.1
O=C(O)CCC/C=C\C[C@@H]1[C@@H](/C=C/[C@H](O)COc2ccc(I)cc2)[C@H]2CC[C@@H]1O2 (relative stereo) [I-BOP, reference compound] | 0.5

query: # input compound: CCCCC/C=C\CC1CC1[C@@H](O)/C=C\C/C=C\CCCC(=O)OC (stereo partly drawn) ; wanted: its IC50
result: 8.1

====

Molecular target: TX synthase (Homo sapiens)
Construct: endogenous in cells
Sequence (P24557 1-533): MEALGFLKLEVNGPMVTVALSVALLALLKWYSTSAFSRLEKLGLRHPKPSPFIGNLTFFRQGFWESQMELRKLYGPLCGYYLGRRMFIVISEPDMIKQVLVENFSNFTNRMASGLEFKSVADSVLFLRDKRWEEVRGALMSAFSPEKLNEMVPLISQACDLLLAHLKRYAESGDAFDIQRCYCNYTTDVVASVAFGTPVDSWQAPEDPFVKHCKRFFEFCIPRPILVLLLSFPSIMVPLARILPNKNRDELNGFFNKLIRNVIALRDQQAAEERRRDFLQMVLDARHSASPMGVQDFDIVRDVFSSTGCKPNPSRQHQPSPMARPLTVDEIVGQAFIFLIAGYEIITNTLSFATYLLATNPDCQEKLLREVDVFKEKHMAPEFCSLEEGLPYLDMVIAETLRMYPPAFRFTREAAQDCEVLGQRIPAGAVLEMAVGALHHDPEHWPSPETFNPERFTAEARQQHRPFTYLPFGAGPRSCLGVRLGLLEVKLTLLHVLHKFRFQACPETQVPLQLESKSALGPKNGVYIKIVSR
Assay: collagen-evoked TxB2 (and HHT) formation in washed human platelets, HPLC
Conditions: washed human platelets; read-out: IC50 for block of collagen-evoked formation of thromboxane
Description: 0.5 ml of platelet suspension was added to siliconized glass tubes (four at a time) and heated with magnetic stirring to 37° for 1 min in a platelet aggregometer (PAP-4C). […] The response was recorded for the next 5 min. […] In experiments where the conversion of tritiated PGH2 was to be monitored, the procedure described above was repeated with tritiated PGH2 instead of unlabeled PGH2. After extraction of the sample as described above, the radiolabeled compounds were analyzed by TLC. […]
measured-attribute: IC50 (nM)
Give a bare numeral; the unit nM is implied.

query: # input molecule: CCCCC/C=C\CC1CC1[C@@H](O)/C=C\C/C=C\CCCC(=O)OC (stereo partly shown) [PBT-3] ; wanted: its IC50
result: 800
